# Tested on: Parabacteroides merdae
# test-summary: growth AUC relative to DMSO control (median of replicates) (fraction); higher = more growth (less inhibition), active = hit call of the paper
# protocol-conditions: 20 µM; 24 h
growth AUC values for the compounds below.
reported-property: growth AUC

compound | measurement-target | reported-property | data-value
C[n+]1ccc(-c2cc[n+](C)cc2)cc1.O.[Cl-].[Cl-] | Parabacteroides merdae | growth AUC | 0.954
C[N+]1(C)CCCCC1.[Cl-] | Parabacteroides merdae | growth AUC | 1.04
CCOP(=S)(OCC)SCCSCC | Parabacteroides merdae | growth AUC | 1.01
O=P(OC(CCl)CCl)(OC(CCl)CCl)OC(CCl)CCl | Parabacteroides merdae | growth AUC | 0.911
Cc1c(F)c(F)c(COC(=O)[C@@H]2[C@H](/C=C(\Cl)C(F)(F)F)C2(C)C)c(F)c1F (mixture of isomers) | Parabacteroides merdae | growth AUC | 0.994
Nc1c(Cl)cc([N+](=O)[O-])cc1Cl | Parabacteroides merdae | growth AUC | 0.93
Clc1ccc(C2(Cn3cncn3)CC(Br)CO2)c(Cl)c1 (stereo not drawn) | Parabacteroides merdae | growth AUC | 0.924
Cc1cc(Cl)ccc1N=CN(C)C.Cl | Parabacteroides merdae | growth AUC | 1.01
COP(=S)(OC)SCN1C(=O)c2ccccc2C1=O | Parabacteroides merdae | growth AUC | 0.988
Cc1ccn2nc(S(=O)(=O)Nc3c(F)cccc3F)nc2n1 | Parabacteroides merdae | growth AUC | 1
CN(C)C(=O)Nc1cccc(OC(=O)NC(C)(C)C)c1 | Parabacteroides merdae | growth AUC | 0.959
CCCN(CCC)c1c([N+](=O)[O-])cc(S(C)(=O)=O)cc1[N+](=O)[O-] | Parabacteroides merdae | growth AUC | 0.936
O=C(O)C(F)(F)C(F)(F)C(F)(F)C(F)(F)C(F)(F)C(F)(F)C(F)(F)F | Parabacteroides merdae | growth AUC | 1
CNC(=O)Oc1cc(C)c(S(C)(=O)=O)c(C)c1 | Parabacteroides merdae | growth AUC | 1.02
C[C@@H]1C[C@@H]([C@H](O)CC2CC(=O)NC(=O)C2)C(=O)[C@@H](C)C1 | Parabacteroides merdae | growth AUC | 1.03
Cc1ccccc1[N+](=O)[O-] | Parabacteroides merdae | growth AUC | 0.995
CC(Oc1ccc(Cl)cc1Cl)C(=O)O (stereo not drawn) | Parabacteroides merdae | growth AUC | 0.973
OC(Cc1ccccc1Cl)(Cn1[nH]cnc1=S)C1(Cl)CC1 (stereo not drawn) | Parabacteroides merdae | growth AUC | 0.894
CC(C)N1C(=O)c2ccccc2NS1(=O)=O | Parabacteroides merdae | growth AUC | 1.02
Clc1ccccc1Cl | Parabacteroides merdae | growth AUC | 1.01
CCC(C)c1cc([N+](=O)[O-])cc([N+](=O)[O-])c1OC(=O)C=C(C)C (stereo not drawn) | Parabacteroides merdae | growth AUC | 0.902
CCOC(=O)/C=C(C)/C=C/C[C@@H](C)CCCC(C)C | Parabacteroides merdae | growth AUC | 0.989
C/C(=N\NC(=O)Nc1cc(F)cc(F)c1)c1ncccc1C(=O)[O-].[Na+] | Parabacteroides merdae | growth AUC | 1.01

---

# System: Bacteroides dorei
# test-summary: growth AUC relative to DMSO control (median of replicates) (fraction); higher = more growth (less inhibition), active = hit call of the paper
# protocol-conditions: 20 µM; 24 h

molecule | growth AUC
CC(COc1ccc(Oc2ccccc2)cc1)Oc1ccccn1 (stereo unspecified) | 1.01
CCOP(=O)(SC(C)CC)SC(C)CC (stereo unspecified) | 1.02
OC(Cc1ccccc1Cl)(Cn1cncn1)C1(Cl)CC1 (stereo unspecified) | 1.01
C[Si](Cn1cncn1)(c1ccc(F)cc1)c1ccc(F)cc1 | 0.854
CCOC(=O)OC1=C(c2cc(C)ccc2C)C(=O)NC12CCC(OC)CC2 (stereo unspecified) | 0.996
Oc1ccc(C(c2ccc(O)cc2)(C(F)(F)F)C(F)(F)F)cc1 | 0.154
CCOP(=O)(NC(C)C)Oc1ccc(SC)c(C)c1 (stereo unspecified) | 0.877
CC1(C)[C@H](C(=O)O[C@H](C#N)c2cccc(Oc3ccccc3)c2)[C@@H]1C=C(Br)Br | 1.04
C[C@@H](Oc1ccc(Oc2ncc(C(F)(F)F)cc2Cl)cc1)C(=O)O | 0.942
CNC(=O)Oc1ccccc1OC(CCl)OC (stereo unspecified) | 0.955
COP(N)(=O)SC (stereo unspecified) | 1.01
O=C(Nc1ccc(F)cc1F)c1cccnc1Oc1cccc(C(F)(F)F)c1 | 0.882
COC(=O)c1ccccc1S(=O)(=O)NC(=O)Nc1nc(C)cc(C)n1 | 0.968
CNC(=O)O/N=C(\C)C(C)S(C)=O (stereo unspecified) | 0.996
CC(Cc1ccc(C(C)(C)C)cc1)CN1C[C@@H](C)O[C@@H](C)C1 (stereo partly specified) | 1.01
CCOCCN(C(=O)CCl)C(=C(C)C)c1ccccc1 | 1
Cc1cnc(C2=NC(C)(C(C)C)C(=O)N2)c(C(=O)O)c1 (stereo unspecified) | 1.02
CC(Oc1ccc(Oc2ncc(C(F)(F)F)cc2Cl)cc1)C(=O)O (stereo unspecified) | 0.954
O=C(NC(=O)c1c(F)cccc1F)Nc1ccc(CO/N=C(\c2ccc(Cl)cc2)C2CC2)cc1 | 1.01
Cc1cc(C2CC2)nc(Nc2ccccc2)n1 | 0.916
CCOP(=S)(OCC)SCS(=O)C(C)(C)C (stereo unspecified) | 0.944
O=C(O)C1(O)c2ccccc2-c2ccc(Cl)cc21 (stereo unspecified) | 1.08
C[N+](C)(C)CCCl.[Cl-] | 0.983
COP(=S)(OC)Oc1ccc(C#N)cc1 | 1.04
Clc1cccc(C(Cl)(Cl)Cl)n1 | 0.948
CC(C1CC1)C(O)(Cn1cncn1)c1ccc(Cl)cc1 (mixture of isomers) | 0.941
COc1c(Cl)ccc(Cl)c1Cl | 0.995
C#CCOS(=O)OC1CCCCC1Oc1ccc(C(C)(C)C)cc1 (mixture of isomers) | 0.984
CCOP(=O)(OCC)OP(=O)(OCC)OCC | 0.956
COP(=O)(OC)C(O)C(Cl)(Cl)Cl (stereo unspecified) | 1
Oc1ccc(Cl)cc1Cl | 0.893
COc1cc(OC)nc(Oc2cccc(Oc3nc(OC)cc(OC)n3)c2C(=O)[O-])n1.[Na+] | 1.02
COC(=O)NCc1cc(/C(C)=N\OCc2cccc(C)n2)ccc1Cl | 0.949
[Cl][Sn]([c]1ccccc1)([c]1ccccc1)[c]1ccccc1 | 0.0162
COP(=S)(OC)Oc1ccc([N+](=O)[O-])c(C)c1 | 0.984
O=[N+]([O-])c1ccc(Oc2ccc(C(F)(F)F)cc2[N+](=O)[O-])cc1 | 0.88
O=C(O)c1ccccc1C(=O)Nc1cccc2ccccc12 | 1.02
CCOP(=S)(OCC)Oc1ccc(S(C)=O)cc1 (stereo unspecified) | 0.985
CN(C)c1nc(=O)n(C2CCCCC2)c(=O)n1C | 1
CCOC(=O)N(C)C(=O)CSP(=S)(OCC)OCC | 1.01
CS(=O)(=O)c1cc(C(F)(F)F)ccc1C(=O)c1cnoc1C1CC1 | 1.02
CC(C)[C@H](C(=O)O[C@H](C#N)c1cccc(Oc2ccccc2)c1)c1ccc(Cl)cc1 | 1.04
Clc1ccc(C2(Cn3cncn3)CC(Br)CO2)c(Cl)c1 (stereo unspecified) | 0.955
CC1(C(=O)Nc2ccc(O)c(Cl)c2Cl)CCCCC1 | 0.995
Clc1ccc(C2(Cn3cncn3)OCCO2)c(Cl)c1 | 0.934
Nc1ccncc1 | 1.04
